Data origin, for the record: patent EP4818189A1

EXPERIMENT_NOTES: Mouse pharmacokinetic detection
Assay type: in vivo
STUDY_CONDITIONS: plasma, CD1 mice, ZZL-7 administered at 100 mg/kg via PO
Where a SMILES comes first, the peptide text is derived from it.
EXPERIMENTAL_ENDPOINT: AUC(0-t)

Data request: Which AUC(0-t) reading was recorded for the compound COC(=O)[C@@H](NC(=O)[C@H](C)NC(C)=O)C(C)C [ZZL-7, acetyl-L-alanyl-L-valine methyl ester, reference compound] (Ac-Ala-Val-OMe) ?
Data returned: 138 ng·h/mL

###

EXPERIMENT_NOTES: Mouse pharmacokinetic detection
Format: in vivo
STUDY_CONDITIONS: plasma, CD1 mice, oral gavage 10 mg/kg vs intravenous 10 mg/kg
Protocol: The detection was carried out in 6-8-week-old CD1 mice (purchased from: Speifu (Beijing) Biotechnology Co., Ltd.). […] The concentration of the compound in a plasma sample was analyzed by LC-MS/MS. Pharmacokinetic calculation was carried out by using WinNonlin (Phoenix™, Version 8.3) or other similar software. The following pharmacokinetic parameters were calculated based on plasma concentration and time data: Oral administration: AUClast, bioavailability (F). […]
Where a SMILES comes first, the peptide text is derived from it. [ ]: non-standard residue; d: D form. ξ: configuration not given here. ξAze = O=C(O)C1CCN1
EXPERIMENTAL_ENDPOINT: bioavailability (%)
All answers are understood in %, so give the number only.

Previously resolved entries follow.
>>> value_reported("CC(=O)N1CC[C@@H]1C(=O)N[C@H](c1ncco1)C(C)C")
90
>>> value_reported("[2H]C([2H])([2H])C(=O)N1CC[C@H]1C(=O)N[C@H](C(=O)OC)C(C)C")
88.5
>>> value_reported("COC(=O)[C@@H](NC(=O)c1cnc(C)[nH]1)C(C)C")
35.3
>>> value_reported("COC(=O)[C@@H](NC(=O)C1CCN1C(C)=O)C(C)C (some centres unmarked) [A-2-1] (Ac-[ξAze]-Val-OMe)")
156

We next turn to a different compound, shown below.
Data request: Which bioavailability reading was recorded for the compound [2H]C([2H])([2H])C(=O)N1CC[C@@H]1C(=O)N[C@H](C(=O)OC)C(C)C ?
Data returned: 84.7
